# subjectOfTest: p53-MDM2 interaction (GST-MDM2 protein aa 23-117 / biotinylated p53 wt peptide) (Homo sapiens (Human), UniProt Q00987)
# Sequence (Q00987 23-117): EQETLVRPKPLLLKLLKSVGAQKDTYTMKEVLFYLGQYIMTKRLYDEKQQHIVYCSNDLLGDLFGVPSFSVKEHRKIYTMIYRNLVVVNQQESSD
# testMethodNotes: Mdm2-p53 Inhibition AlphaScreen
# experimentalSetup: GST-MDM2 (aa 23-117) / biotinylated p53 wt peptide
Exercise: state measured IC50 for each of the molecules provided.
Answer format: numeric, nM implied, no suffix.

Record COC(=O)c1ccc2c3n(nc2c1C)[C@@H]1[C@H](C3)N(CC2CC2)[C@@]2(C(=O)Nc3cc(Cl)ccc32)[C@H]1c1cccc(Cl)c1F . Reported IC50: 23

Record COc1cccc(CCN2[C@H]3Cn4c(nc5cc(C(=O)O)ccc54)[C@H]3[C@H](c3cccc(Cl)c3F)[C@]23C(=O)Nc2cc(Cl)ccc23)c1 , field IC50: 4

Lab note: COc1cc2c(cc1C(=O)N(C)C)nc1n2CC[C@H]2[C@@H]1[C@H](c1cccc(Cl)c1F)[C@]1(C(=O)Nc3cc(Cl)ccc31)N2CC1CC1 gave IC50 of 5

Briefly, IC50 measured for CCCN1[C@H]2CCn3c(nc4cc(C(=O)O)ccc43)[C@H]2[C@H](c2cccc(Cl)c2F)[C@]12C(=O)Nc1cc(Cl)ccc12 : 4

Input COCc1cccc(CN2[C@@H]3Cn4c(nc5cc(C(=O)O)ccc54)[C@@H]3[C@@H](c3cccc(Cl)c3F)[C@@]23C(=O)Nc2cc(Cl)ccc23)c1 . Output IC50: 14

The molecule Cc1cc2c3n(nc2cc1C(=O)O)[C@@H]1[C@H](C3)N(CC2CC2)[C@@]2(C(=O)Nc3cc(Cl)ccc32)[C@H]1c1cccc(Cl)c1F showed IC50 equal to 3

Sure, the documented IC50 for O=C(O)c1ccc2nn3c(c2c1)C[C@H]1[C@@H]3[C@H](c2cccc(Cl)c2F)[C@]2(C(=O)Nc3cc(Cl)ccc32)N1CC1CC1 is 2

Reported IC50 for CC(C)=CCN1[C@H]2CCn3c(nc4cc(C(=O)O)ccc43)[C@H]2[C@H](c2cccc(Cl)c2F)[C@]12C(=O)Nc1cc(Cl)ccc12 was 11

Lookup result for O=C(O)c1cc2nc3n(c2cc1OC(F)(F)F)CC[C@H]1[C@@H]3[C@H](c2cccc(Cl)c2F)[C@]2(C(=O)Nc3cc(Cl)ccc32)N1CC1CC1 ; measured IC50: 3

So, N#CC12CC(CN3[C@H]4CCn5c(nc6cc(C(=O)O)ccc65)[C@H]4[C@H](c4cccc(Cl)c4F)[C@]34C(=O)Nc3cc(Cl)ccc34)(C1)C2 ? Its IC50 was 21

Field IC50 (entry O=C1Nc2cc(Cl)ccc2[C@@]12[C@@H](c1cccc(Cl)c1F)[C@@H]1c3nc4cc(N5CCCCC5)ccc4n3CC[C@@H]1N2CC1CC1 ) reads 240

Form: molecule = O=C(O)Cc1ccc2c(c1)nc1n2CC[C@H]2[C@@H]1[C@H](c1cccc(Cl)c1F)[C@]1(C(=O)Nc3cc(Cl)ccc31)N2CC1CC1 ; IC50 = 7

###

Kindly supply the reported IC50 values for the records listed here.
# subjectOfTest: p53-MDM2 interaction (GST-MDM2 protein aa 23-117 / biotinylated p53 wt peptide) (Homo sapiens (Human), UniProt Q00987)
# testMethodNotes: Mdm2-p53 Inhibition AlphaScreen
# experimentalSetup: GST-MDM2 (aa 23-117) / biotinylated p53 wt peptide
Write it as a number; the unit nM goes unstated.

Given item COCCNC(=O)c1ccc2c(c1)nc1n2CC[C@H]2[C@@H]1[C@H](c1cccc(Cl)c1F)[C@]1(C(=O)Nc3cc(Cl)ccc31)N2CC1CC1 [Ib-216] , the value recorded as its IC50 is 7

Just so you know, measured IC50 for O=C(O)c1ccc2c(c1)nc1n2CC[C@H]2[C@@H]1[C@H](c1cccc(Cl)c1F)[C@]1(C(=O)Nc3nc(Cl)ccc31)N2CC1CC1 [Ib-171] came out at 10

response.value for CC(C)c1cc2c(cc1C(=O)O)nc1n2CC[C@H]2[C@@H]1[C@H](c1cccc(Cl)c1F)[C@]1(C(=O)Nc3cc(Cl)ccc31)N2CC1CC1 [Ib-162] (field: IC50) = 6

IC50 recorded for this compound, Cc1c(C(=O)O)ccn2c3c(nc12)[C@@H]1[C@H](C3)N(CC2CC2)[C@@]2(C(=O)Nc3cc(Cl)ccc32)[C@H]1c1ccnc(Cl)c1F [Ic-23] , is 6

The compound listed as CN(O)C(=O)c1ccc2c(c1)nc1n2CC[C@H]2[C@@H]1[C@H](c1cccc(Cl)c1F)[C@]1(C(=O)Nc3cc(Cl)ccc31)N2CC1CC1 [Ib-230] has a reported IC50 of 10

Entry CCCCN1[C@H]2CCn3c(nc4cc(C(=O)O)ccc43)[C@H]2[C@H](c2cccc(Cl)c2F)[C@]12C(=O)Nc1cc(Cl)ccc12 [Ib-115] — recorded IC50 = 7

Recorded IC50 (compound CS(=O)(=O)c1ccc2c(c1)nc1n2CC[C@H]2[C@@H]1[C@H](c1cccc(Cl)c1F)[C@]1(C(=O)Nc3cc(Cl)ccc31)N2CC1CC1 [Ib-57] ): 12

Quick note, IC50 for N#Cc1ccc2c(c1)NC(=O)[C@]21[C@@H](c2cccc(Cl)c2F)[C@@H]2c3nc4cc(C(=O)O)ccc4n3CC[C@@H]2N1CC1CC1 [Ib-152] landed at 7
